target-of-assay: recombinant AaDBR2 (artemisinic aldehyde double bond reductase) (Artemisia annua, UniProt C5H429, A226G/L231G/N16K)
Construct: This ORF encodes a 415-amino acid protein with a predicted molecular mass of 45.6 kDa; made in house; host or cells: E. coli Rosetta 2(DE3)
Sequence (C5H429 other isoform, or with tags, fused parts or gaps N16K/A226G/L231G): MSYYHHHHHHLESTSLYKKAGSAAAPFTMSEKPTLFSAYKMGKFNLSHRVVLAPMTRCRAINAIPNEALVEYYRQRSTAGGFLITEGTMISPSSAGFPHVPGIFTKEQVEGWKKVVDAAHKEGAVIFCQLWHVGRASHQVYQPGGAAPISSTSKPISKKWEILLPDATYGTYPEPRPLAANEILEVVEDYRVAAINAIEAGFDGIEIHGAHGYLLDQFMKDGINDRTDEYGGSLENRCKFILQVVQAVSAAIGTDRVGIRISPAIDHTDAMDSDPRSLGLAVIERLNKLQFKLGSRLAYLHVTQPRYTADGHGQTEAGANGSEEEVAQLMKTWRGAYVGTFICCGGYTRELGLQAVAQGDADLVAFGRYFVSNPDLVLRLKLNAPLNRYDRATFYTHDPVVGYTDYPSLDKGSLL
assay-method-text: In vitro enzyme assays of recombinant AaDBR2 with potential substrates, GC/MS analysis
Type: biochemical
details: tested as potential substrate, with NADPH, GC/MS
experimental-endpoint: activity of AaDBR2 on the substance as substrate

CC1=CC[C@@H]2C[C@H]1C2(C)C [(+)-α-pinene] | No activity was detected
C=C1C(=O)O[C@@]23[C@H]1CC[C@@H](C)[C@@H]2CC[C@@]1(C)O[C@@H]31 | No activity was detected
C=C1C(=O)O[C@@H]2O[C@@]3(C)CC[C@H]4[C@H](C)CC[C@@H]1[C@@]24OO3 | No activity was detected
C=C(C)[C@H]1CC=C(C)C(=O)C1 [(+)-carvone, (+)-Carvone] | has activity
C=C(C(=O)O)[C@@H]1CC[C@@H](C)[C@@H]2CCC(C)=C[C@@H]21 | No activity was detected

// next item, activity of AaDBR2 on the substance as substrate requested
Suppose we examine the compound O=C1C=CCCC1 ; what activity of AaDBR2 on the substance as substrate value has been reported?
has activity
